system: PIK3C2G; conditions: concentration: 1 μM, replicates: in singlicate; n = 1;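 note: KINOMEscan kinase panel screen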
Measured %Inh accompanies every entry in the list below.
Answer format: numeric, % implied, no suffix.

## Input Form field: reported %Inh of Cl.c1ccc(-c2ccc3c(Nc4ccc5[nH]ncc5c4)ccnc3c2)nc1 [GW440137]
## Output 0

## Input Subsequent entry: CN(C)S(=O)(=O)c1cc(-c2ccc3nccc(-c4cccc(S(N)(=O)=O)c4)c3c2)cnc1N [GSK1669921]
## Output 96

## Input Moving on to Cl.NC(=O)c1cccc(Nc2nccc(Nc3ccc(Oc4c(Cl)cccc4Cl)c(Cl)c3)n2)c1 [GW659009]
## Output 0

---

test system: GAK; conditions: concentration: 1 μM, replicates: in singlicate; n = 1
Entries get a class label from measured %Inh. See ranges: I = under 3%, II = from 3% up to 30%, III = 30% and over

Look over these answered cases.
{"compound": "O=C(Nc1n[nH]c2nc(-c3ccc(O)cc3)ccc12)C1CC1", "study.system": "GAK", "cat": "II"}
{"compound": "CC(=O)Nc1nc2cnc(Nc3cc(NC(=O)c4cccc(C5(C#N)CC5)c4Cl)ccc3C)nc2s1", "study.system": "GAK", "cat": "I"}
{"compound": "COc1cccc(C(=O)Nc2cccc(Oc3ccc4nc(NC(=O)C5CC5)cn4n3)c2)c1", "study.system": "GAK", "cat": "III"}
{"compound": "Cc1ccc(C)c(NC(=O)NC2CCN(c3ccnc(Nc4ccc(F)cc4)n3)C2)c1 (stereo not drawn)", "study.system": "GAK", "cat": "I"}
{"compound": "Cc1ccc(F)c(C(=O)Nc2cccc(-c3nn4ccccc4c3-c3ccnc(Nc4cccc(F)c4)n3)c2)c1F", "study.system": "GAK", "cat": "III"}

## Input Which bin should I file CN(c1ccc(NC(=O)Nc2cc(C(F)(F)F)ccc2F)cc1)c1ccnc(Nc2ccc(S(N)(=O)=O)cc2)n1 under?
## Output I

## Input Also Cc1ccc(C(=O)N2CC[C@@H](O)C2)cc1-n1c(C)cc(OCc2ccc(F)cc2F)c(Br)c1=O ?
## Output I

---

tested on: DRAK1; construct: gene STK17A; conditions: concentration: 1 μM, replicates: in singlicate; n = 1
reported.endpoint: %Inh (%)
Write it as a number; the unit % goes unstated.

# annotated cases, reported %Inh shown
{"compound": "CC(=O)Nc1nc2cnc(Nc3cc(NC(=O)c4cccc(C5(C#N)CC5)c4Cl)ccc3C)nc2s1", "result": 0}
{"compound": "NCCCC(NC(=O)c1cc(Br)c(-c2ccnc3[nH]ccc23)s1)c1ccccc1.O=C(O)C(F)(F)F.O=C(O)C(F)(F)F (centres unmarked)", "result": 61}
{"compound": "Cc1cccc(NC(=O)Nc2ccc(Oc3ncnc4ccn(C)c34)cc2)c1", "result": 0}
{"compound": "COc1cccc(NC(=O)NC2CCN(c3ccnc(Nc4cc(OC)c(OC)c(OC)c4)n3)C2)c1 (centres unmarked)", "result": 0}
{"compound": "COc1cccc(C(=O)Nc2cccc(Oc3ccc4nc(NC(=O)C5CC5)cn4n3)c2)c1", "result": 0}

## Input // query %Inh value for entry COc1ccc(Nc2nccc(N3CCC(NC(=O)Nc4cccc(OC)c4)C3)n2)cc1 (centres unmarked)
## Output 8

## Input What about C[C@@H](Oc1cc(-n2cnc3cc(-c4ccnc(NCCS(C)(=O)=O)c4)ccc32)sc1C(N)=O)c1ccccc1Cl ?
## Output 0

## Input What would you report for CCS(=O)(=O)c1ccc(OC)c(Nc2nccc(-c3c(-c4cccc(NC(=O)c5c(F)cccc5F)c4)nn4ncccc34)n2)c1 ?
## Output 0

## Input Note, next up: CNC(=O)c1ccccc1Nc1nc(Nc2ccc(N3CCOCC3)cc2)ncc1Cl.Cl
## Output 95.1
